test system: PPARg homodimer (NR concentration 180 nM); assay: PBM binding z-score (relative to random genomic background probes); higher = stronger binding; sequences stand for … in GC…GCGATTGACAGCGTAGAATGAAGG

{"BIOSEQUENCE": "TAGCCTGGGTCATGGGCCAGTATACCACGCGAAC", "PBM binding z-score": 1.52}
{"BIOSEQUENCE": "TCATATAGGTAATACAGGTAAAAGTCGGCATCTA", "PBM binding z-score": 1.08}
{"BIOSEQUENCE": "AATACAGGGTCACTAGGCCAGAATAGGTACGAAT", "PBM binding z-score": 2.05}
{"BIOSEQUENCE": "ATATGTAGCTTATCGGGTCATTCAGTTTGCGCAT", "PBM binding z-score": 1.05}
{"BIOSEQUENCE": "TTTCGGAGGACACGAAAGGTCAGAGCTCGACATC", "PBM binding z-score": 4.65}
{"BIOSEQUENCE": "TCATATAGGTAATACCGGTGAAAGTCGGCATCTA", "PBM binding z-score": 0.599}
{"BIOSEQUENCE": "CCGAGTAGGTTATGGGGCATTCCGGCAACGGTGA", "PBM binding z-score": 0.995}
{"BIOSEQUENCE": "TCTCCTAGGTCAGTTGGTCAGCTAACGAGCTGCC", "PBM binding z-score": 1.05}
{"BIOSEQUENCE": "GCTATTAGTTGAAAGGGCAATCGAATGATTCTCG", "PBM binding z-score": 1.15}
{"BIOSEQUENCE": "GCACCAAGGTGAATAGGTCGTTGATGAGTAGGCG", "PBM binding z-score": 1.01}
{"BIOSEQUENCE": "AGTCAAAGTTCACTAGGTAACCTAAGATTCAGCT", "PBM binding z-score": 2.98}
{"BIOSEQUENCE": "TGGCCTAGGTCATTGGGCCAGTATAGTACGCATC", "PBM binding z-score": 1.98}
{"BIOSEQUENCE": "GCTGGCAGGCCATTTGGGTCACTCAATGACGGGC", "PBM binding z-score": -0.317}
{"BIOSEQUENCE": "CTCGAAAGGTCGTGCTCACGTGAGTATACCAAAC", "PBM binding z-score": 1.35}
{"BIOSEQUENCE": "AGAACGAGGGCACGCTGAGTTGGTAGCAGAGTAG", "PBM binding z-score": -0.387}
{"BIOSEQUENCE": "TAGCCTAGGTCATTGGGCCATTATAGTACGCATC", "PBM binding z-score": 2.65}
{"BIOSEQUENCE": "GATACTGGGTCAGCTAGAGGCCAGAGTATGGAAA", "PBM binding z-score": 1.24}
{"BIOSEQUENCE": "TCATATAGGTAAATGTGAAAGTCGAACGATATGA", "PBM binding z-score": 0.31}
{"BIOSEQUENCE": "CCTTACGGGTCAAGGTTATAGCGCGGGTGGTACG", "PBM binding z-score": 1.9}
{"BIOSEQUENCE": "ATACCAAGGTGATCTTGAGGTCGTTGATACTAAC", "PBM binding z-score": 1.02}
{"BIOSEQUENCE": "TCTATTAGTTGATTAGGGCATCCGAAACAGCGGA", "PBM binding z-score": 1.28}
{"BIOSEQUENCE": "ACTATTAGTTGACTTAGGGAAACCGATACGACGC", "PBM binding z-score": 0.412}
{"BIOSEQUENCE": "CCTACTGGGCCATTCATAGGTCATTGATCATATG", "PBM binding z-score": 1.33}
{"BIOSEQUENCE": "ACTCGGAGGACAAAGGGCAGAGCTACGCCAGTGA", "PBM binding z-score": 0.364}
{"BIOSEQUENCE": "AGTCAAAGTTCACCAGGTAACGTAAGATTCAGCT", "PBM binding z-score": 3.02}
{"BIOSEQUENCE": "CGTCAAAGTTCAAGGTAGCGTAACAGAAAGCAGC", "PBM binding z-score": 3.03}
{"BIOSEQUENCE": "CCTACTGGGCCACGAAAGCTCATTGATTCAGTGA", "PBM binding z-score": -0.477}
{"BIOSEQUENCE": "CAAACTAGTTCACCGGAAGGTCAAAGTCCGCATG", "PBM binding z-score": 3.3}
{"BIOSEQUENCE": "ATCGAAAGGTAGAGGTGAGTATAGAGAAAGGGAA", "PBM binding z-score": 0.946}
{"BIOSEQUENCE": "GCTGCTAGGTCAACTGATGGTCAGCAAAAGCTCG", "PBM binding z-score": 1.67}
{"BIOSEQUENCE": "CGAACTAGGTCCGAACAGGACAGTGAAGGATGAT", "PBM binding z-score": -1.32}
{"BIOSEQUENCE": "CAAACTAGGTGACAGAGGTCAAAGTCCGTGCGTA", "PBM binding z-score": 2.02}
{"BIOSEQUENCE": "CAAACTAGGTCACCGGAAGGTCAATGTCCGCATG", "PBM binding z-score": 6.39}
{"BIOSEQUENCE": "CCTCGGAGGACAGAAGATCAGAGCTGTCCGCTTT", "PBM binding z-score": -0.0483}
{"BIOSEQUENCE": "CCTCGGAGGACAGTAGGTCAGAGCTGTCCGCTTT", "PBM binding z-score": 0.409}
{"BIOSEQUENCE": "CCTAGTTGGTCAAGAGGTCACACACCGGATATGA", "PBM binding z-score": 3.36}
{"BIOSEQUENCE": "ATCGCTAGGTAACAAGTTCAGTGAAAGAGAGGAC", "PBM binding z-score": 0.192}
{"BIOSEQUENCE": "GTACCACGGTGAATAGGTCGTTGATGAGTAGGCG", "PBM binding z-score": 0.25}
{"BIOSEQUENCE": "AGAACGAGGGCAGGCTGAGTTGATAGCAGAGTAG", "PBM binding z-score": -0.517}
{"BIOSEQUENCE": "TCTAGTTGGTCACGGAGGTCACCCACGACGGGTA", "PBM binding z-score": 3.92}
{"BIOSEQUENCE": "GCAGACAGGTAAAACGCAGGTAACTCAGGGTGGC", "PBM binding z-score": -0.847}
{"BIOSEQUENCE": "GCGACTTGGGCATCAGCAGGTTACCATAACTTAA", "PBM binding z-score": -0.13}
{"BIOSEQUENCE": "CCAGACAGATGAGAAGGTAACTCAGCCTCGATTA", "PBM binding z-score": 1.08}
{"BIOSEQUENCE": "TGAATGAGGTTAAAGATCGGGGAACGTGGCGTCG", "PBM binding z-score": 0.857}
{"BIOSEQUENCE": "CGTCCAAGTTCAGCAGGTCAGTGAAAGCGACGTG", "PBM binding z-score": 1.77}
{"BIOSEQUENCE": "CCTATTAGTTGACCATAAGGGCCACCGAAGCTCG", "PBM binding z-score": 1.36}
{"BIOSEQUENCE": "CCTACTGGGACAAGGTCATTGATCAGTCAAAGCA", "PBM binding z-score": 2.28}
{"BIOSEQUENCE": "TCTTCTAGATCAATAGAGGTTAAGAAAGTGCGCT", "PBM binding z-score": 0.764}
{"BIOSEQUENCE": "CCTCGGAGGGCAACAGGAGGTCAGAGCTGCCAGA", "PBM binding z-score": 1.67}
